Ref: PubChem BioAssay (NCI)

# System: HL-60(TB) leukemia
# Measurement notes: NCI-60 one-dose screen, 48 h (100 = growth as untreated, 0 = no growth, -100 = all killed)
# Details: 10 µM unless noted
The panel holds about 83,000 compounds, 20% with a hit somewhere; the sample as a whole holds those more often.
Answer each item with its documented growth.
Numbers only, in %.

[
  {
    "Molecule": "COc1cc2nc(Cl)nc(Nc3cccc(C4=Nc5c(N)nc(N)nc5NC(c5ccccc5)C4)c3)c2cc1OC (stereo not given)",
    "Measured": 66.4
  },
  {
    "Molecule": "CN1CCN(Cc2ccc(NC(=O)c3cncc(C#Cc4[nH]nc5ncncc45)c3)cc2C(F)(F)F)CC1",
    "Measured": 21.5
  },
  {
    "Molecule": "C#CCNC1CCC(c2csc(C#C)n2)=C1C (stereo not given)",
    "Measured": 90.6
  },
  {
    "Molecule": "CC(=O)C1=C(C)NC(NN)=NC1c1cccc(Cl)c1 (stereo not given)",
    "Measured": 115
  },
  {
    "Molecule": "CN1CCN(CCCCCC(=O)Nc2nc(-c3cccc(NS(=O)(=O)c4cccc5c(N(C)C)cccc45)c3)cs2)CC1",
    "Measured": 75.1
  }
]

Hi, could you look up growth for each item in my list?
1. O=C1[C@H]2Cc3c([nH]c4ccccc34)[C@@H](c3ccc(Br)cc3)N2C(=O)CN1C1CCN(CC2CCCCC2)CC1
2. NS(=O)(=O)c1cccc(Nc2nc(SCC(=O)c3ccc(Cl)cc3)nc3c2CCC3)c1
3. Cc1nc(-c2cc3ccccc3oc2=O)ccc1C(=O)/C=C/c1ccccn1

Data returned:
[-70.6, 111, 32.9]

Hi, could you look up growth for each item in my list?
1. CN1CCN(Cc2ccc(NC(=O)c3cncc(C#Cc4cnc5ccc(OC6CCOCC6)nn45)c3)cc2C(F)(F)F)CC1
2. C#CCN(C)CCCOc1ccc(NCc2ccc(C(=O)NO)cc2)cc1Cl
3. COc1ccc(Cn2cc(C#N)c(N)c2C(C)=O)cc1
4. C#CCOc1cccc(/C(N)=N/C(N)=N/c2nc3ccccc3s2)c1
5. C/C(=C(\c1ccc(O)cc1)c1ccc(OCCN2CCCCCC2)cc1)c1ccc(Cl)cc1

Data returned:
[-43.8, 12, 103, 88.8, -49.2]

Hi, could you look up growth for each item in my list?
1. CS(=O)(=O)c1ccc(-c2nc3ccccn3c2C=Nc2ccc(Cl)cc2)cc1
2. C=C=COc1cccc(/C(N)=N/C(N)=N/c2nc3ccccc3s2)c1

Data returned:
[59.7, 97.8]

----------
# System: SK-MEL-5 melanoma
# Measurement notes: NCI-60 one-dose screen, 48 h
# Details: 10 µM
The panel holds about 83,000 compounds, 20% with a hit somewhere; the sample as a whole holds those more often. Active and inactive are the calls of the source. Rule for the calls: active = growth percent below 10; inactive = the rest.
The reply should be one of these categories: active, inactive

[
  {
    "Compound": "CC1=C(CN(O)C(N)=O)C2=C(C)C3(CC3)[C@@](C)(O)C(=O)C2=C1",
    "Target or system": "SK-MEL-5 melanoma",
    "Label class": "active"
  },
  {
    "Compound": "CCC(C)[C@H]1C(=O)O[C@H](C(C)C)C(=O)N(C)[C@@H](C(C)C)C(=O)O[C@H](C(C)C)C(=O)N(C)[C@@H](C(C)C)C(=O)O[C@H](C(C)C)C(=O)N1C (some centres not stated)",
    "Target or system": "SK-MEL-5 melanoma",
    "Label class": "active"
  },
  {
    "Compound": "CC1=C[C@H]2O[C@@H]3C[C@H]4OC(=O)/C=C\\C=C\\[C@H]([C@@H](C)O)OCC/C(C)=C/C(=O)OC[C@@]2(CC1)[C@]4(C)[C@]31CO1",
    "Target or system": "SK-MEL-5 melanoma",
    "Label class": "active"
  }
]

Data request: How was O=C(CCCc1ccc(N(CCCl)CCCl)cc1)OCc1ccccc1 classified in this test?
Data returned: inactive

Data request: Consider next the compound CC1=C2C(=C[C@@](C)(COC(=O)c3ccc(S(=O)(=O)F)cc3)[C@@H]2OC(=O)c2ccc(S(=O)(=O)F)cc2)C(=O)[C@](C)(O)C12CC2 in the same way.
Data returned: active

Data request: Consider next the compound CC(=O)O[C@@H]1[C@@H]2O[C@H]2[C@@](C)(O)C(=O)[C@@H](C)C/C=C/[C@H]2[C@@H]3O[C@]3(C)[C@@H](C)C3[C@H](Cc4ccccc4)NC(=O)[C@@]312 (some centres not stated) in the same way.
Data returned: inactive

Data request: Consider next the compound CC1=C2C(=C[C@@](C)(COC(=O)c3ccc(S(=O)(=O)F)cc3)[C@@H]2O)C(=O)[C@](C)(O)C12CC2 in the same way.
Data returned: active
